Test system: biotinyl-Leu-oxazolone
assay.summary: self-aminoacylation, catalytic enhancement (BLO) (fold over background); higher = more active; k-Seq, kA / k0A0; sequences stand for … in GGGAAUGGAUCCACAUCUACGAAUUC…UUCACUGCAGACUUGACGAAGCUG
This sample holds only a part of the variants without activity.
measured.parameter: self-aminoacylation
The answer should be a number; do not append a unit.

Example results:
biopolymer.sequence | measurement.target | measured.parameter | reported.measurement
UAGUUUGCUAAUAGUCGCUAG [Fam3.1 aminoacylation ribozyme variant] | biotinyl-Leu-oxazolone | self-aminoacylation | 1.13
AUGUACCUAGGUCAUCGGGUG [Fam2.2 aminoacylation ribozyme variant] | biotinyl-Leu-oxazolone | self-aminoacylation | 5.37

Ask: Tell me reported self-aminoacylation for CUACUUCAAACAAUGGGCCUG [Fam1A.1 aminoacylation ribozyme variant] , tested with biotinyl-Leu-oxazolone.
Result: 1.19

Ask: Tell me reported self-aminoacylation for AUUACGCUGGUCAUGGAGUGA [Fam2.1 aminoacylation ribozyme variant] , tested with biotinyl-Leu-oxazolone.
Result: 2.76

Ask: Tell me reported self-aminoacylation for AUUCACCGCGGUCAUCGGGUG [Fam2.2 aminoacylation ribozyme variant] , tested with biotinyl-Leu-oxazolone.
Result: 8.56

Ask: Tell me reported self-aminoacylation for AUCACCCUGGUCAUCGGGUGA [Fam2.1 aminoacylation ribozyme variant] , tested with biotinyl-Leu-oxazolone.
Result: 9.48

Ask: Tell me reported self-aminoacylation for AUUACGAUGGUCAUCGAGUGA [Fam2.1 aminoacylation ribozyme variant] , tested with biotinyl-Leu-oxazolone.
Result: 4.54

Ask: Tell me reported self-aminoacylation for CUCACCCUGGUCAUCGAGUGA [Fam2.1 aminoacylation ribozyme variant] , tested with biotinyl-Leu-oxazolone.
Result: 7.38

Ask: Tell me reported self-aminoacylation for CCACACUUCGACCAAUCGGUC [Fam1B.1 aminoacylation ribozyme variant] , tested with biotinyl-Leu-oxazolone.
Result: 1.22

====

Test system: biotinyl-Val-oxazolone
assay.summary: self-aminoacylation, catalytic enhancement (BVO) (fold over background); higher = more active; k-Seq, kA / k0A0; sequences stand for … in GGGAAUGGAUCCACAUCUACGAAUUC…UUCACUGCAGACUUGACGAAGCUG
Fewer inactive variants are shown than the library holds.
Each record here notes measured self-aminoacylation.
The answer should be a number; do not append a unit.

Example results:
biopolymer.sequence | reported.measurement
CCACGUUUCAAGCAAUCGGUC [Fam1B.1 aminoacylation ribozyme variant] | 3.47
CCACCCUUCAAGCAAUCGGAC [Fam1B.1 aminoacylation ribozyme variant] | 1.31
CUACUUCGAACAAUCGGCCUG [Fam1A.1 aminoacylation ribozyme variant] | 1.54

Ask: Fill blank: measured self-aminoacylation of the sequence AUACUUCAAACAGUCGGUCUG [Fam1A.1 aminoacylation ribozyme variant] is ____.
Result: 0.699

====

Each record here notes measured self-aminoacylation.
System: biotinyl-Leu-oxazolone
assay.summary: self-aminoacylation, catalytic enhancement (BLO) (fold over background); higher = more active; k-Seq, kA / k0A0; sequences stand for … in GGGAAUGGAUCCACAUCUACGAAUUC…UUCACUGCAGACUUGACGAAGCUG
This sample holds only a part of the variants without activity.
The answer should be a number; do not append a unit.

Example results:
biopolymer.sequence | measured.parameter | reported.measurement
AUUCACCAAGGUCAUAGGGUG [Fam2.2 aminoacylation ribozyme variant] | self-aminoacylation | 4.37
CCACAUUUCAAGCAAUCGGUU [Fam1B.1 aminoacylation ribozyme variant] | self-aminoacylation | 1.56
CAACUUCAAACAAUGGGUCUG [Fam1A.1 aminoacylation ribozyme variant] | self-aminoacylation | 1.06
AUGCACCUAGGGCAUCGGGUG [Fam2.2 aminoacylation ribozyme variant] | self-aminoacylation | 3.16
CCAUACAUCAAGCAAUCGGUC [Fam1B.1 aminoacylation ribozyme variant] | self-aminoacylation | 0.841

Ask: Fill blank: measured self-aminoacylation of the sequence AUGCACCUAGGUCCUCGGGUG [Fam2.2 aminoacylation ribozyme variant] is ____.
Result: 5.43

Ask: Fill blank: measured self-aminoacylation of the sequence AUUCACCUAGGGUAUCGGGUG [Fam2.2 aminoacylation ribozyme variant] is ____.
Result: 8.63

Ask: Fill blank: measured self-aminoacylation of the sequence AUUCUCCUAGGGCAUCGGGUG [Fam2.2 aminoacylation ribozyme variant] is ____.
Result: 4.7

Ask: Fill blank: measured self-aminoacylation of the sequence AAGUUUGCUAAUAGUGGCUAG [Fam3.1 aminoacylation ribozyme variant] is ____.
Result: 0.65

====

Tested on: biotinyl-Trp-oxazolone
assay.summary: self-aminoacylation, catalytic enhancement (BWO) (fold over background); higher = more active; k-Seq, kA / k0A0; sequences stand for … in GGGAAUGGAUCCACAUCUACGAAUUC…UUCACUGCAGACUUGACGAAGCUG
This sample holds only a part of the variants without activity.
measured.parameter: self-aminoacylation
The answer should be a number; do not append a unit.

Example results:
biopolymer.sequence | self-aminoacylation
UUUCACCUAGGUCAUUGGGUG [Fam2.2 aminoacylation ribozyme variant] | 3.77
AAAUUUGCCAAUAGUCGCAAG [Fam3.1 aminoacylation ribozyme variant] | 2.14
AAGUUUGGUAAUAGUCGCAGG [Fam3.1 aminoacylation ribozyme variant] | 2.18
CUACUUCAUAGAAUCGGUCUG [Fam1A.1 aminoacylation ribozyme variant] | 0.698
AAGUCUGCGAAUAGUCGCAAG [Fam3.1 aminoacylation ribozyme variant] | 1.2

Ask: Fill blank: measured self-aminoacylation of the sequence AUUGCCCUGGUCAUCGAGUGU [Fam2.1 aminoacylation ribozyme variant] is ____.
Result: 65.7

Ask: Fill blank: measured self-aminoacylation of the sequence AUUCACCUAGGUCAUCCAGUG [Fam2.2 aminoacylation ribozyme variant] is ____.
Result: 6.96

Ask: Fill blank: measured self-aminoacylation of the sequence CUACUUCAAACUAUCGGUCUA [Fam1A.1 aminoacylation ribozyme variant] is ____.
Result: 0.62

Ask: Fill blank: measured self-aminoacylation of the sequence UAGUUUGCUGAUAGUCGCAAG [Fam3.1 aminoacylation ribozyme variant] is ____.
Result: 1.61

Ask: Fill blank: measured self-aminoacylation of the sequence AAGUUUGCUAAUAGUGGCGAG [Fam3.1 aminoacylation ribozyme variant] is ____.
Result: 0.531

Ask: Fill blank: measured self-aminoacylation of the sequence AUUGCCCUGGCCAUCGAGUGA [Fam2.1 aminoacylation ribozyme variant] is ____.
Result: 4.87

Ask: Fill blank: measured self-aminoacylation of the sequence AAGUGUGCCAAUAGUCGCAAG [Fam3.1 aminoacylation ribozyme variant] is ____.
Result: 1.66

Ask: Fill blank: measured self-aminoacylation of the sequence AGUACCCUCGUCAUCGAGUGA [Fam2.1 aminoacylation ribozyme variant] is ____.
Result: 3.06

Ask: Fill blank: measured self-aminoacylation of the sequence CUACUUCACACAAUCGGUCUA [Fam1A.1 aminoacylation ribozyme variant] is ____.
Result: 0.777

Ask: Fill blank: measured self-aminoacylation of the sequence AUUCACCUAGGUGAUCGGGUA [Fam2.2 aminoacylation ribozyme variant] is ____.
Result: 3.59

Ask: Fill blank: measured self-aminoacylation of the sequence AAGUUUGCACAUAGUCGCAAG [Fam3.1 aminoacylation ribozyme variant] is ____.
Result: 0.682

Ask: Fill blank: measured self-aminoacylation of the sequence CUACUUCAAACCAUCGUUCUG [Fam1A.1 aminoacylation ribozyme variant] is ____.
Result: 0.478

Ask: Fill blank: measured self-aminoacylation of the sequence CUACUUCAAACAAUCGGACUA [Fam1A.1 aminoacylation ribozyme variant] is ____.
Result: 0.655

Ask: Fill blank: measured self-aminoacylation of the sequence AAGUUUGCUAAUUGUCUCAAG [Fam3.1 aminoacylation ribozyme variant] is ____.
Result: 0.743

Ask: Fill blank: measured self-aminoacylation of the sequence CUAGUACAAACAAUCGGUCUG [Fam1A.1 aminoacylation ribozyme variant] is ____.
Result: 0.572

Ask: Fill blank: measured self-aminoacylation of the sequence CCACACUUCAGGCAAUCGGUU [Fam1B.1 aminoacylation ribozyme variant] is ____.
Result: 2.37

====

Test system: biotinyl-Val-oxazolone
assay.summary: self-aminoacylation, catalytic enhancement (BVO) (fold over background); higher = more active; k-Seq, kA / k0A0; sequences stand for … in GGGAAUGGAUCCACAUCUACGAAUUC…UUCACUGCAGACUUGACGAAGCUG
Fewer inactive variants are shown than the library holds.
measured.parameter: self-aminoacylation
The answer should be a number; do not append a unit.

Example results:
biopolymer.sequence | self-aminoacylation
CUACUUGAAACAAUCGUUCUG [Fam1A.1 aminoacylation ribozyme variant] | 0.561
AUUCACCUACGUCUUCGGGUG [Fam2.2 aminoacylation ribozyme variant] | 2.81

Next sequence, self-aminoacylation to be filled in.
Ask: Fill blank: measured self-aminoacylation of the sequence AUUCACCUAGGUCAUGGGGCG [Fam2.2 aminoacylation ribozyme variant] is ____.
Result: 2.27
